details: in acetone, 298.15 K
assay.endpoint: solubility (mole fraction)
Answers are plain numbers.

Exercise: Tell me its solubility (mole fraction) given N#CC(c1ccc(Cl)cc1)c1c(Cl)cc(-n2ncc(=O)[nH]c2=O)cc1Cl (stereo unspecified) as the entry.
Key: 0.0186

====

conditions: in acetone, 323.15 K
assay.endpoint: solubility (mole fraction)
Numbers only.

Exercise: Give the reported value of solubility (mole fraction) for this record: N#CC(c1ccc(Cl)cc1)c1c(Cl)cc(-n2ncc(=O)[nH]c2=O)cc1Cl (stereo unspecified)
Key: 0.0361

====

conditions: in methanol, 318.15 K
assay.endpoint: solubility (mole fraction)

Exercise: Return solubility (mole fraction) (reported value) for this molecule: N#CC(c1ccc(Cl)cc1)c1c(Cl)cc(-n2ncc(=O)[nH]c2=O)cc1Cl (stereo unspecified)
Key: 0.00646

====

settings: in toluene, 303.15 K
assay.endpoint: solubility (mole fraction)
Numbers only.

Exercise: Return reported solubility (mole fraction). Input compound: N#CC(c1ccc(Cl)cc1)c1c(Cl)cc(-n2ncc(=O)[nH]c2=O)cc1Cl (stereo unspecified)
Key: 0.000923

====

conditions: in toluene, 288.15 K
assay.endpoint: solubility (mole fraction)
One number for each entry.

Exercise: Report measured solubility (mole fraction); entry is N#CC(c1ccc(Cl)cc1)c1c(Cl)cc(-n2ncc(=O)[nH]c2=O)cc1Cl (stereo unspecified)
Key: 0.000371

====

conditions: in ethanol, 318.15 K
assay.endpoint: solubility (mole fraction)
One number for each entry.

Exercise: Dear colleague, please send me the reported solubility (mole fraction) for N#CC(c1ccc(Cl)cc1)c1c(Cl)cc(-n2ncc(=O)[nH]c2=O)cc1Cl (stereo unspecified) when you can.
Key: 0.00555

====

conditions: in acetonitrile, 318.15 K
assay.endpoint: solubility (mole fraction)
Numbers only.

Exercise: Supply measured solubility (mole fraction) of N#CC(c1ccc(Cl)cc1)c1c(Cl)cc(-n2ncc(=O)[nH]c2=O)cc1Cl (stereo unspecified) in your reply.
Key: 0.0244

====

conditions: in acetonitrile, 293.15 K
assay.endpoint: solubility (mole fraction)
Give bare numbers.

Exercise: Identify measured solubility (mole fraction) corresponding to N#CC(c1ccc(Cl)cc1)c1c(Cl)cc(-n2ncc(=O)[nH]c2=O)cc1Cl (stereo unspecified)
Key: 0.0115

====

settings: in n-butanol, 313.15 K
assay.endpoint: solubility (mole fraction)
Answers are plain numbers.

Exercise: // Input: N#CC(c1ccc(Cl)cc1)c1c(Cl)cc(-n2ncc(=O)[nH]c2=O)cc1Cl (stereo unspecified) . Output its solubility (mole fraction) only.
Key: 0.00229

====

details: in isopropanol, 323.15 K
assay.endpoint: solubility (mole fraction)
Numbers only.

Exercise: Query solubility (mole fraction) for N#CC(c1ccc(Cl)cc1)c1c(Cl)cc(-n2ncc(=O)[nH]c2=O)cc1Cl (stereo unspecified)
Key: 0.00455

====

details: in n-propanol, 298.15 K
assay.endpoint: solubility (mole fraction)

Exercise: Entry N#CC(c1ccc(Cl)cc1)c1c(Cl)cc(-n2ncc(=O)[nH]c2=O)cc1Cl (stereo unspecified) needs its solubility (mole fraction) filled in; supply it.
Key: 0.00221

====

settings: in toluene, 293.15 K
assay.endpoint: solubility (mole fraction)
Numbers only.

Exercise: Item N#CC(c1ccc(Cl)cc1)c1c(Cl)cc(-n2ncc(=O)[nH]c2=O)cc1Cl (stereo unspecified) : provide solubility (mole fraction)
Key: 0.00052
